Target: Voltage-dependent calcium channel subunit alpha-2/delta-1 (Homo sapiens)
Sequence (P54289 25-956 limits assumed): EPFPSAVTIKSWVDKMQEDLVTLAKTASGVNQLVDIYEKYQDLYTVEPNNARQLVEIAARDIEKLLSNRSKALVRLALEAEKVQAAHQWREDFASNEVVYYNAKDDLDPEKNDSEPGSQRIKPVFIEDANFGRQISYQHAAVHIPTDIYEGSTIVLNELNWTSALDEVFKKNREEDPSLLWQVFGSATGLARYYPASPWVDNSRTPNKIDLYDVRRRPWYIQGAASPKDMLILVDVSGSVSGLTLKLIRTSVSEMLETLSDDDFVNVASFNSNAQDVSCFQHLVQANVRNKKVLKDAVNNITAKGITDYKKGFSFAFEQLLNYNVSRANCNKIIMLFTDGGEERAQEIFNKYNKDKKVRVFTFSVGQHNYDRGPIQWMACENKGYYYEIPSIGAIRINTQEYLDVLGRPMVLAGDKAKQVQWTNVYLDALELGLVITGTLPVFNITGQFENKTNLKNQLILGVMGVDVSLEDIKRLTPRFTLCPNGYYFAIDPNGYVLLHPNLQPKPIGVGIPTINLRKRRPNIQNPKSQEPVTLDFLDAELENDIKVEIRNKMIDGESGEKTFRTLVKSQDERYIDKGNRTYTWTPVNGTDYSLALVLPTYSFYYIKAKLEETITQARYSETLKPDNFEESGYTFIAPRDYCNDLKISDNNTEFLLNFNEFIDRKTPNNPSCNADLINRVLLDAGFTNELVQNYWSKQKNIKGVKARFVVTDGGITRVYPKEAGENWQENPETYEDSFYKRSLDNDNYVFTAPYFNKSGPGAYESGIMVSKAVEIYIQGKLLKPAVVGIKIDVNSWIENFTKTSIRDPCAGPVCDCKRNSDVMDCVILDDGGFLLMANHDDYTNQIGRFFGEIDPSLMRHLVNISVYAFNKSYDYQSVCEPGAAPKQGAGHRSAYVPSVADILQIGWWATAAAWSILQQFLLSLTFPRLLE
Sequence (P54289 957-1103 limits assumed): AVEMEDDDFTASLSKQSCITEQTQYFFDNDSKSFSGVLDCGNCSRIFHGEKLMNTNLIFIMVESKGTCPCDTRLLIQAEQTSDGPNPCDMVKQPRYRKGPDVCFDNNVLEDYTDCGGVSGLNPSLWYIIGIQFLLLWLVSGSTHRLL
Test: Displacement of [3H]-gabapentin from human Cav alpha2delta1 expressed in CHO-K1 cell membranes incubated for 60 mins by scintillation counting method
parameter-measured: Ki (µM)

| compound | target-or-system | parameter-measured | quantity-unit | censor-symbol | result-value |
| --- | --- | --- | --- | --- | --- |
| CCCC(c1nc2ccccc2c(=O)n1Cc1ccccc1)N1C[C@@H](C)N[C@@H](C)C1 (stereo not given in full) | Voltage-dependent calcium channel subunit alpha-2/delta-1 (Homo sapiens) | Ki | µM | = | 4.82 |
| CCCC(c1nc2ccc(C#N)cc2c(=O)n1CC)N1C[C@@H](C)N[C@@H](C)C1 (stereo not given in full) | Voltage-dependent calcium channel subunit alpha-2/delta-1 (Homo sapiens) | Ki | µM | = | 0.288 |
| CCC[C@H](c1nc2ccc(Br)cc2c(=O)n1CC)N1CCN[C@@H](C)C1 | Voltage-dependent calcium channel subunit alpha-2/delta-1 (Homo sapiens) | Ki | µM | = | 0.091 |
| CCCC(c1nc2ccc(NCC)cc2c(=O)n1CC)N1C[C@@H](C)N[C@@H](C)C1 (stereo not given in full) | Voltage-dependent calcium channel subunit alpha-2/delta-1 (Homo sapiens) | Ki | µM | = | 0.044 |
| CCC(c1nc2ccccc2c(=O)n1CCOC)N1C[C@@H](C)N[C@@H](C)C1 (stereo not given in full) | Voltage-dependent calcium channel subunit alpha-2/delta-1 (Homo sapiens) | Ki | µM | = | 0.761 |
| CCCC(c1nc2cc(Br)ccc2c(=O)n1CC)N1C[C@@H](C)N[C@@H](C)C1 (stereo not given in full) | Voltage-dependent calcium channel subunit alpha-2/delta-1 (Homo sapiens) | Ki | µM | = | 0.015 |
| CCC[C@@H](c1nc2ccncc2c(=O)n1CC)N1CCN[C@@H](C)C1 | Voltage-dependent calcium channel subunit alpha-2/delta-1 (Homo sapiens) | Ki | µM | > | 1 |
| CCCC(c1nc2ccccc2c(=O)n1CCOC)N1C[C@@H](C)N[C@@H](C)C1 (stereo not given in full) | Voltage-dependent calcium channel subunit alpha-2/delta-1 (Homo sapiens) | Ki | µM | = | 0.241 |
| CCC[C@H](c1nc2ccc(Br)cc2c(=O)n1CC)N1CCN[C@@H](CC)C1 | Voltage-dependent calcium channel subunit alpha-2/delta-1 (Homo sapiens) | Ki | µM | = | 0.123 |
| CCC[C@H](c1nc2ccncc2c(=O)n1CC)N1CCN[C@H](C)C1 | Voltage-dependent calcium channel subunit alpha-2/delta-1 (Homo sapiens) | Ki | µM | = | 0.006 |
| CCC[C@@H](c1nc2ccc(Br)cc2c(=O)n1CC)N1C[C@@H](C)N[C@@H](C)C1 | Voltage-dependent calcium channel subunit alpha-2/delta-1 (Homo sapiens) | Ki | µM | = | 2.9 |
| CCCC(c1nc2ccccc2c(=O)n1CC)N1C[C@@H](C)N[C@@H](C)C1 (stereo not given in full) | Voltage-dependent calcium channel subunit alpha-2/delta-1 (Homo sapiens) | Ki | µM | = | 0.036 |
| CCCC(c1nc2ccc(Br)cc2c(=O)n1CC)N1CCNCC1 (stereo not given) | Voltage-dependent calcium channel subunit alpha-2/delta-1 (Homo sapiens) | Ki | µM | = | 0.076 |
| CCC(c1nc2ccccc2c(=O)n1CCCOC)N1C[C@@H](C)N[C@@H](C)C1 (stereo not given in full) | Voltage-dependent calcium channel subunit alpha-2/delta-1 (Homo sapiens) | Ki | µM | > | 10 |
| CCCC(c1nc2ccc(-c3ccncc3)cc2c(=O)n1CC)N1C[C@@H](C)N[C@@H](C)C1 (stereo not given in full) | Voltage-dependent calcium channel subunit alpha-2/delta-1 (Homo sapiens) | Ki | µM | = | 0.038 |
| CCCCC(c1nc2ccccc2c(=O)n1CCOC)N1C[C@@H](C)N[C@@H](C)C1 (stereo not given in full) | Voltage-dependent calcium channel subunit alpha-2/delta-1 (Homo sapiens) | Ki | µM | = | 1.34 |
| COCCn1c(C(C)N2CCNCC2)nc2ccccc2c1=O (stereo not given) | Voltage-dependent calcium channel subunit alpha-2/delta-1 (Homo sapiens) | Ki | µM | = | 4.9 |
| CCCC(c1nc2ccccc2c(=O)n1CCOC)N1CCNCC1 (stereo not given) | Voltage-dependent calcium channel subunit alpha-2/delta-1 (Homo sapiens) | Ki | µM | = | 0.638 |
| CCCC(c1nc2ccccc2c(=O)n1C)N1C[C@@H](C)N[C@@H](C)C1 (stereo not given in full) | Voltage-dependent calcium channel subunit alpha-2/delta-1 (Homo sapiens) | Ki | µM | = | 0.073 |
| CCC[C@H](c1nc2ccc(Br)cc2c(=O)n1CC)N1C[C@@H](C)N[C@@H](C)C1 | Voltage-dependent calcium channel subunit alpha-2/delta-1 (Homo sapiens) | Ki | µM | = | 0.008 |
| COCCn1c(CN2CCNCC2)nc2ccccc2c1=O | Voltage-dependent calcium channel subunit alpha-2/delta-1 (Homo sapiens) | Ki | µM | > | 10 |
| CCC[C@@H](c1nc2ccc(Br)cc2c(=O)n1CC)N1CCN[C@@H](C)C1 | Voltage-dependent calcium channel subunit alpha-2/delta-1 (Homo sapiens) | Ki | µM | = | 0.479 |
| CCCC(c1nc2c(Br)cccc2c(=O)n1CC)N1C[C@@H](C)N[C@@H](C)C1 (stereo not given in full) | Voltage-dependent calcium channel subunit alpha-2/delta-1 (Homo sapiens) | Ki | µM | > | 1 |
| CCC(c1nc2ccccc2c(=O)n1CCOC)N1CCNCC1 (stereo not given) | Voltage-dependent calcium channel subunit alpha-2/delta-1 (Homo sapiens) | Ki | µM | = | 1.81 |
| CCCC(c1nc2cccc(Br)c2c(=O)n1CC)N1C[C@@H](C)N[C@@H](C)C1 (stereo not given in full) | Voltage-dependent calcium channel subunit alpha-2/delta-1 (Homo sapiens) | Ki | µM | = | 0.066 |
| COCCn1c(C(CC2CC2)N2C[C@@H](C)N[C@@H](C)C2)nc2ccccc2c1=O (stereo not given in full) | Voltage-dependent calcium channel subunit alpha-2/delta-1 (Homo sapiens) | Ki | µM | = | 0.413 |
| CCC[C@H](c1nc2ccncc2c(=O)n1CC)N1CCN[C@@H](C)C1 | Voltage-dependent calcium channel subunit alpha-2/delta-1 (Homo sapiens) | Ki | µM | = | 0.027 |
| CCCC(c1nc2ccc(Br)cc2c(=O)n1CC)N1CCC(NC)CC1 (stereo not given) | Voltage-dependent calcium channel subunit alpha-2/delta-1 (Homo sapiens) | Ki | µM | = | 0.436 |
| CCCC(c1nc2ccccc2c(=O)n1Cc1ccco1)N1C[C@@H](C)N[C@@H](C)C1 (stereo not given in full) | Voltage-dependent calcium channel subunit alpha-2/delta-1 (Homo sapiens) | Ki | µM | = | 0.23 |
| CCCC(c1nc2ccc(Br)cc2c(=O)n1CC)N1C[C@@H](C)N[C@@H](C)C1 (stereo not given in full) | Voltage-dependent calcium channel subunit alpha-2/delta-1 (Homo sapiens) | Ki | µM | = | 0.016 |
| CCC[C@@H](c1nc2ccncc2c(=O)n1CC)N1CCN[C@H](C)C1 | Voltage-dependent calcium channel subunit alpha-2/delta-1 (Homo sapiens) | Ki | µM | > | 1 |
| CCCC(c1nc2cc(-c3ccncc3)ccc2c(=O)n1CC)N1C[C@@H](C)N[C@@H](C)C1 (stereo not given in full) | Voltage-dependent calcium channel subunit alpha-2/delta-1 (Homo sapiens) | Ki | µM | = | 0.018 |
| CCC[C@H](c1nc2ccc(Br)cc2c(=O)n1CC)N1CCN[C@H](C)C1 | Voltage-dependent calcium channel subunit alpha-2/delta-1 (Homo sapiens) | Ki | µM | = | 0.016 |
| CCC[C@H](c1nc2ccc(Br)cc2c(=O)n1CC)N1CCNC(C)(C)C1 | Voltage-dependent calcium channel subunit alpha-2/delta-1 (Homo sapiens) | Ki | µM | = | 1.58 |
| CCC[C@@H](c1nc2ccc(Br)cc2c(=O)n1CC)N1CCN[C@H](C)C1 | Voltage-dependent calcium channel subunit alpha-2/delta-1 (Homo sapiens) | Ki | µM | > | 1 |
